systemUnderTest: DNA repair protein RAD52 homolog (Homo sapiens) (UniProt P43351)
Sequence (P43351 whole entry, looked up): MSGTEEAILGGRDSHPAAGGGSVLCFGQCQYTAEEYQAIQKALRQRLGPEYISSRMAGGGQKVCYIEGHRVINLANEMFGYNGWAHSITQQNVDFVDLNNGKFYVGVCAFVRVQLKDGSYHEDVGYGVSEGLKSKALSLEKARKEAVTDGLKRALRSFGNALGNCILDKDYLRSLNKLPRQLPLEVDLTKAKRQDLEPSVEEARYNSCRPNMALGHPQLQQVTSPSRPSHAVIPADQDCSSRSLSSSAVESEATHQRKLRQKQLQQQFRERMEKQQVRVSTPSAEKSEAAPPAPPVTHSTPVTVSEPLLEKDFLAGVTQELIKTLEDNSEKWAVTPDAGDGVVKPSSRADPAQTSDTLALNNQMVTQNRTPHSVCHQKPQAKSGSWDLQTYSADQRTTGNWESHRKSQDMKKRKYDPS
experimentalProtocol: RAD52 DNA annealing inhibitors, primary screen, biochemical, FRET, single point, set 2 (AID 651710)
testContext: recombinant RAD52 DNA annealing, FRET fluorescence; at 18.7 µM
Hit rate of the full screen: of about 360,000 compounds, about 1,600 (0.44%) were called active.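 How the source made its calls: active means every replicate showing at least 50% inhibition; inconclusive means mean inhibition at least 50% but not in every replicate; inactive means the rest.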 The full list was thinned out, with actives kept by preference.
Mark one answer only. Choices: active, inactive

These recorded examples may help you get a feel for the data.
structureString: N#C[C@@H]1[C@H](c2ccccc2C2=CCCCC2)[C@@H](CO)N1S(=O)(=O)c1cccc(F)c1
group: inactive
--
structureString: COc1ccc(NC(=O)Nc2ccc3c(c2)OC[C@@H](C)NC[C@@H](C)[C@H](OC)CN(C)C3=O)cc1
group: inactive
--
structureString: COc1cccc(NC(=O)Nc2ccc3c(c2)C(=O)N(C)C[C@@H](OC)[C@H](C)CN(CC2CC2)[C@H](C)CO3)c1
group: active

--- query ---
Lookup: # fetch the recorded call for CO[C@@H]1CN(C)C(=O)c2cc(NC(=O)NC(C)C)ccc2OC[C@@H](C)N(CC2CC2)C[C@@H]1C here
Found: inactive

====

systemUnderTest: DNA repair protein RAD52 homolog (Homo sapiens) (UniProt P43351)
experimentalProtocol: RAD52 DNA annealing inhibitors, primary screen, biochemical, FRET, single point, set 2 (AID 651710)
testContext: recombinant RAD52 DNA annealing, FRET fluorescence; at 18.7 µM
In all, about 360,000 compounds went through this assay and about 1,600 (0.44%) were called active.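 The calls were made as follows: active = every replicate showing at least 50% inhibition; inconclusive = mean inhibition at least 50% but not in every replicate; inactive = the rest.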 The full list was thinned out, with actives kept by preference.
Pick one and only one: Yes (active), No (inactive)

See these solved cases before continuing.
structureString: COc1ccc(C#Cc2ccc3c(c2)[C@]2(C(=O)N3)[C@H](c3ccccc3OCCO)N3[C@H](c4ccccc4)[C@H](c4ccccc4)OC(=O)[C@H]3[C@@H]2C(=O)N2CCCCCCC2)cc1
group: Yes
//
structureString: COc1ccc(CN(C)C[C@@H]2OCCCC[C@@H](C)Oc3ccc(NS(=O)(=O)c4ccc(C)cc4)cc3C(=O)N([C@@H](C)CO)C[C@H]2C)cc1
group: No
//
structureString: COc1ccc(C#Cc2ccc3c(c2)[C@]2(C(=O)N3)[C@H](C(=O)N3CCCCCCC3)[C@H]3C(=O)O[C@H](c4ccccc4)[C@H](c4ccccc4)N3[C@@H]2c2ccc(O)cc2)cc1
group: No

Lookup: In this assay, the call recorded for O=C1O[C@@H](c2ccccc2)[C@@H](c2ccccc2)N2[C@@H](c3ccccc3OCCO)[C@]3(C(=O)Nc4ccc(C#CC5(O)CCCCCC5)cc43)[C@@H](C(=O)N3CCCCCCC3)[C@H]12 was what?
Found: No

Lookup: Which outcome was entered for the compound C=CCNC(=O)[C@H]1[C@@H]2C(=O)O[C@@H](c3ccccc3)[C@@H](c3ccccc3)N2[C@@H](c2ccccc2OCCO)[C@]12C(=O)N(C(=O)OCCOC)c1ccc(C#Cc3ccc(OC)cc3)cc12 in this test?
Found: No

====

systemUnderTest: DNA repair protein RAD52 homolog (Homo sapiens) (UniProt P43351)
experimentalProtocol: RAD52 DNA annealing inhibitors, primary screen, biochemical, FRET, single point, set 2 (AID 651710)
testContext: recombinant RAD52 DNA annealing, FRET fluorescence; at 18.7 µM; stronger effect = higher value
Out of some 360,000 compounds screened, about 1,600 (0.44%) were called active. The sample holds actives, similar compounds and a random draw of the others, so the mix is not that of the screen.
measurementKind: inhibition (%)
State just the number; it will be interpreted in %.

Worked cases, answers included:
compound: C[C@@H](O)C#Cc1ccc([C@H]2[C@@H](CO)N3CCCCN(CC4CC4)C[C@@H]23)cc1
inhibition (%): -24.5
//
compound: CS(=O)(=O)N1CC2(C1)[C@H](c1ccccc1)[C@H](CO)N2Cc1ccc(F)cc1
inhibition (%): -16.8
//
compound: Cc1c(CCO)sc[n+]1CC(=O)OC12CC3CC(CC(C3)C1)C2
inhibition (%): 9.07

inhibition in this record for COCC(=O)N(C)C[C@H]1Oc2cc(C#C[C@@H](C)O)ccc2S(=O)(=O)N([C@@H](C)CO)C[C@@H]1C : -1.74

// inhibition value for CN(C)C(=O)C[C@@H]1C[C@@H]2c3cc(NC(=O)c4ccc5c(c4)OCO5)ccc3O[C@@H]2[C@H](CO)O1 : 5.11

Form: compound = CS(=O)(=O)N1[C@H](C(=O)NCc2ccncc2)[C@@H](CO)[C@@H]2Cn3c(ccc(C4=CCCCC4)c3=O)[C@@H]21 ; inhibition = -1.92
